- Test summary: soluble on expression in E. coli; label from the status in PepcDB or PDB records

- Sequence code: "MSFPAASIDLGTNTARLLIGSVEAGRIEHLLVKRHITRLGGGFTKERGISPEAWSRSLAALVDFADEMNRAGVVRVRAVATSAVRDAVNGGDFCADVAERTGISLEVIDGEEEALLTLAGVLSGLDRKEGRFFVFDVGGGSTEYTLASGNAPLYTESLPLGVVRLTEGKSDLPAMEEKVGRELAGLRERLAGRALDGQLAGATLVGTAGTATTLAAISLGMTDYDYRRVNNHLLSRDEIARILALLLPLSPAERLAVPGLEKGREDLIVAGTLITLATMDLFGFESMTVSDFGLLEGALIGLARTDELEHHHHHH"
  soluble on expression in E. coli: "not soluble"
- Sequence code: "MSLSMSTIAKVAARAGVSPTTVSHVINHSDRVSKPLRERVEAAIKDLGYKPNPQAQSLRTGRTNIVAMLIPDIRNPFYPELVKAAQSELEVAGLDMLIFNTDVPGGQSQDHGREYLRQIGNKRVDGLIVGDFALHGMHDALMRVETPTVFIGNLPNHAVDCVRIDDFGGGYQMGAYLAGKGHRRIAHVTGPSFFAEAMSRADGFEQGLADHGATPDPGLRFEGSYLAPSGKAAAEWLLAGHGGDLPSAVFFGNYLMAAGALAEFYDRGIRIPDDFKVAVFGDQPQLEYVRPRLTRVGNAPAELARRATRMLLERINGTYEGEPRSEVVSCVLREFETEGHHHHHH"
  soluble on expression in E. coli: "soluble"
- Sequence code: "MGLEKVVLTGLGAGLIAVAARGQNPLATALKIEQNDEGETVVRDAVTIGKPAEQLYAVWRDLPGLPLLMTHLRSVEVLDDKRSRWTVEAPAPLGTVSWEAELTADEPGKRIAWRSLPGARIENSGEVLFRPAPGARGTEVVVRLTYRPPGGSAGAVIARMFNQEPSQQLRDDLMRFKREQELGLEHHHHHH"
  soluble on expression in E. coli: "soluble"
- Sequence code: "MGSDKIHHHHHHMTEKATLAKQILHFNETLSSNSMDLPAGYRVINPYEGDQKELVRNITTRFYQKYYNDTKPRRIIFGSSPARRGSAVTGVPFEDAKHLQSETGIFIDTFYINQSSSDFLYDVMNEYGGCEQFYSDFYMNFVCPLGIVRINAKGNEVNCNYYENKQLREALMPFIIESIRSQIDFGMDTSVCYCIGSGENFKFLSRINEEHHFFETIIPLEHPRFIMQYNSKNKDTYMEKYLCALKI"
  soluble on expression in E. coli: "not soluble"
- Sequence code: "MAENIPLRVQFKRMKAAEWASSDVVLLEGEIGFETDTGFAKFGDGQNTFSKLKYLTGPKGPKGDTGLQGKTGGTGSRGPAGKPGTTDYDQLQNKPDLGAFAQKEETNSKITKLESSKADKNAVYLKAESNAKLDEKLNLKGGVMTGQLQFKPNSGIKPSSSVGGAINIDMSKSEGAAMVMYTNKDTTDGPLMILRSNKDTFDQSVQFVDYKGTTNAVNIVMRQPTTPNFSSALNITSANEGGSAMQIRGVEKALGTLKITHENPSVDKEYDKNAAALSIDIVKKQKGGKGTAAQGIYINSTSGTTGKLLRIRNLNDDKFYVKPDGGFYAKETSQIDGNLKLKDPIANDHAATKAYVDGEVEKLKALLAAKQM"
  soluble on expression in E. coli: "not soluble"
- Sequence code: "MSSETFYKTQQDLRKAESHASHAAGGNTPANSNVSAMKVTPNLLIQFGDTAANSTNQSIVDEHTDKAKAIEERKANLPLPDQPPVASDWQSADQRAVNVGSGGVQGSVSGESNTALRDPATAGSSARMSGEELHKETQPTGNVGRQATEGLSDIPGDAKARK"
  soluble on expression in E. coli: "not soluble"
- Sequence code: "MGSDKIHHHHHHMNRSGTISGNNFQSTAAQTTAGPRESRLAASVCRIAPFYDFILRRKIMRQKIPLLASFKLTFRCNLSCLACPFHQRAGEEKANMSWSLARASLDALKHQGTLIVVFEGGEPFLWRDGRHDLHDLVNYAGRLFPRVAVTTNGTFPLDVPADILWVSLDGLKETHDRLRSGSFDRVWENLEQCSHGRLFVHFTINRENRHDIRPLLEKLKGIPAFRGMTVQLFYPYGQGEASLALSDLERKTVLEEVVAMKKQGFPILNSAGRLTAMINNDWRCHDDILINVDPDGAITPGCYVKSRGRINCRNCGFSPVSEASGALDLFPGSLKAGWSIFLK"
  soluble on expression in E. coli: "not soluble"
- Sequence code: "MAAQKKIPLRKCVVTGEMKPKREMVRIVRSKEGEVSIDPTGKKAGRGAYITLDPECILQAKKKNILARHLKADIDDAIYDELLALAEKEKQAGHEA"
  soluble on expression in E. coli: "soluble"
- Sequence code: "MFITFEGIDGSGKSTQIQLLAQYLEKRGKKVILKREPGGTETGEKIRKILLEEEVTPKAELFLFLASRNLLVTEIKQYLSEGYAVLLDRYTDSSVAYQGFGRNLGKEIVEELNDFATDGLIPDLTFYIDVDVETALKRKGELNRFEKREFLERVREGYLVLAREHPERIVVLDGKRSIEEIHRDVVREVKRRWKLDV"
  soluble on expression in E. coli: "soluble"
- Sequence code: "MNRNDAYHTLISEICALSLISEPERFYESANFKISDVDFTLHYQDRDEGRAILIYGDMGALPARNRDSALLALMDINFHMFSGAHSPAFSWNAQTGRVLLMGSIGLERATAEGVLLLMKSFADLAREWREHGFMGPVGAAGAPVNMPASQATTRDTPASSGRFQ"
  soluble on expression in E. coli: "not soluble"
- Sequence code: "MGSDKIHHHHHHMHDKFLNYFDETARQGSIRKAAAVLNMSSSSLNRKIISTENRLGIRLFDRHADGVTLTEAGVVVLEHCRNTLFDYQRIVNMVEDIRDMRTGHIDILTLDSIALSVLPEVLDDFQDAYPQVAYTIQTDEPHAVMQAVANGTADIGLSFSNDLHPDVRCQAEKSTPIGAIMAHDHPLAERDLIEVGDLAPYQLIRSYDSQTHRSFVNEAVSSLGVQLSTQMVTNSLPLAKTMILNGRGVGIYSKIGFIEEIEDGRLRYVAINSPLLRELRIGVLISARTGLLPVQHLLARALSKSLRSLRLDS"
  soluble on expression in E. coli: "not soluble"
